# Experimental system: HIV-1 protease (Q7S mutant form) (Human immunodeficiency virus type 1 group M subtype B, UniProt P04585, Q495S)
# Construct: made in house
# Assay notes: HIV-1 Protease RET assay
# Type: biochemical
# Experimental parameters: Ave. Ki (nM), RET assay, Q7S enzyme, Morrison tight binding fit
# Description: Ki's for the inhibitors of HIV-1 protease were determined using a resonance energy transfer (RET) assay. […] This enzyme is first partially purified as inclusion bodies from cell lysate. […] The commercially available peptide substrate (Molecular Probes Cat. # H-2930) RE(EDANS)SQNYPIVQK(DABCYL)R is used to assess activity and Ki's. This peptide is cleaved quantitatively by HIV-1 Pr at the Tyr-Pro bond. […]
Parameter: Ki (nM)
Kindly provide the numeric value in nM only, without the unit symbol.

Q: Look up Ki of Cc1c(F)cccc1C(=O)N[C@@H](Cc1ccccc1)[C@H](O)C(=O)N1CSC(C)(C)[C@H]1C(=O)N[C@@H]1C=CCCC1 and report it.
Result: 0.35

Q: Look up Ki of Cc1c(O)cccc1C(=O)N[C@@H](Cc1ccccc1)[C@H](O)C(=O)N1CSC(C)(C)[C@H]1C(=O)N[C@@H]1CCc2ccccc21 and report it.
Result: 0.31

Q: Look up Ki of C#CCOC(=O)N[C@@H](Cc1ccccc1)[C@H](O)C(=O)N1CC(F)(F)C[C@H]1C(=O)NCc1ccccc1C and report it.
Result: 14.8

Q: Look up Ki of Cc1ccccc1CNC(=O)[C@H]1N(C(=O)[C@@H](O)[C@H](Cc2ccccc2)NC(=O)O[C@H]2CCOC2)CSC1(C)C and report it.
Result: 0.27

Q: Look up Ki of Cc1ccccc1CNC(=O)[C@H]1N(C(=O)[C@@H](O)[C@H](Cc2ccccc2)NC(=O)O[C@@H]2CCS[C@@H]2C(C)C)CSC1(C)C and report it.
Result: 1.2

Q: Look up Ki of Cc1cccc(C)c1OCC(=O)N[C@@H](Cc1ccccc1)[C@H](O)C(=O)N1CSC(C)(C)[C@H]1C(=O)NCc1ccco1 and report it.
Result: 0.16

Q: Look up Ki of Cc1ccccc1CNC(=O)[C@H]1N(C(=O)[C@@H](O)[C@H](Cc2ccccc2)NC(=O)OC(C)C)CSC1(C)C and report it.
Result: 2.6

Q: Look up Ki of COc1ccc(CNC(=O)N[C@@H](Cc2ccccc2)[C@H](O)C(=O)N2CSC(C)(C)[C@H]2C(=O)NCc2ccccc2C)cc1 and report it.
Result: 1.1

Q: Look up Ki of C#CCOC(=O)N[C@@H](Cc1ccccc1)[C@H](O)C(=O)N1CSC(C)(C)[C@H]1C(=O)NCc1ccncc1 and report it.
Result: 11.4

Q: Look up Ki of Cc1c(O)cccc1C(=O)N[C@@H](Cc1ccccc1)[C@H](O)C(=O)N1CSC(C)(C)[C@H]1C(=O)NC1CC1 and report it.
Result: 0.97

* * *

For each of the compounds below, state its pEC50.
# Test system: HIV-1 (HIV-1 RF, HIV-1 NL4-3) in CEM-SS / MT-2 cells
# Assay notes: Cytopathic effect (CPE) inhibition assay (XTT/MTT dye reduction)
# Format: cell-based
# Experimental parameters: Human immunodeficiency virus 1, NL43, unit inferred; read-out: EC50
pEC50: −log10 of the molar value.

Q: Look up pEC50 of CCCNC(=O)[C@H]1N(C(=O)[C@@H](O)[C@H](Cc2ccccc2)NC(=O)OCCC)CSC1(C)C and report it.
Result: ≤ 5.49

Q: Look up pEC50 of Cc1ccccc1CNC(=O)[C@@H]1C(C(=O)[C@@H](O)[C@H](Cc2ccccc2)NC(=O)c2cccc(O)c2C)[C@@H]2CC[C@@H]1C2 (stereo partly drawn) and report it.
Result: ≤ 5.00

Q: Look up pEC50 of Cc1ccccc1CNC(=O)[C@@H]1C2CCC(CC2)N1C(=O)[C@@H](O)[C@H](Cc1ccccc1)NC(=O)c1cccc(O)c1C and report it.
Result: ≤ 5.49

Q: Look up pEC50 of Cc1cccc(C)c1OCC(=O)N[C@@H](Cc1ccccc1)[C@H](O)C(=O)N1CSC(C)(C)[C@H]1C(=O)NC[C@H]1CCCO1 and report it.
Result: ≤ 6.00

Q: Look up pEC50 of CCCC(C)C(=O)NC(Cc1ccccc1)[C@H](O)C(=O)N1CSC(C)(C)C1C(=O)NCc1ccccc1C (stereo partly drawn) and report it.
Result: ≤ 5.49

Q: Look up pEC50 of COc1cc2c(cc1OC)CN(C(=O)[C@H]1N(C(=O)[C@@H](O)[C@H](Cc3ccccc3)NC(=O)c3cccc(O)c3C)CSC1(C)C)CC2 and report it.
Result: ≤ 5.00
